Tested on: DU-145 prostate
Experiment: NCI tumour cell line growth inhibition, 48 h
parameter: TGI (µM)
State just the number; it will be interpreted in µM.

Guide cases for TGI, answers given:
N#Cc1c(-c2ccc(Cl)cc2)c2c(N=Nc3c(O)ccc4ccccc34)[nH]nc2[nH]c1=O = 1.07
COc1ccc(C(CC(=O)c2ccccc2)C(C(=O)c2ccccc2)C(c2ccc(OC)cc2)C2C(=O)NC(=S)NC2=O)cc1 (stereo unspecified) = 32
COc1ccc(C2C=C(c3ccc(Cl)cc3)N=C3SC=C(C)N32)c(Br)c1 (stereo unspecified) = 7.26
CN(C)c1cccc2c1C(=O)C=CC21CCc2ccc(N(C)C)c3c(N(C)C)ccc1c23 (stereo unspecified) = 17.5

Now let's try a different one.
Provide value of TGI for this record tested with DU-145 prostate: COc1ccc2c3c1OC1C34CCN(C)C(C2)C4=CC(I)C1(OC)OC (stereo unspecified)
22.6

---

Test system: SNB-75 CNS
Test: NCI tumour cell line growth inhibition, 48 h
# Lookup of reported TGI keyed by entry
State just the number; it will be interpreted in µM.

Guide cases for TGI, answers given:
Cc1cccc2c(N)c3cccc(C(=O)NCC[N+]4(Cc5ccc([N+](=O)[O-])cc5)CCOCC4)c3nc12 = 63
CC(=O)c1cc(C(=O)c2ccc3c(c2)Sc2ccccc2N3)c2c(C)cccn12 = 1.04
Cc1ccc(-c2nc(-c3cn(C)c4ncccc34)cs2)cc1 = 22.4
c1ccc([As]=[As]c2ccccc2)cc1 (configuration not stated) = 2.65
O=C(Nc1ccccc1O)c1ccc(NS(=O)(=O)c2cccc3cccnc23)cc1 = 8.03
O=C1c2ccccc2C(=O)c2sc(Nc3ccccc3Cl)nc21 = 27.1
CCCCCCCCCCCCCC(=O)CSCCNC(=O)CCNC(=O)[C@@H](O)C(C)(C)COP(=O)(O)OP(=O)(O)OCC1OC(n2cnc3c(N)ncnc32)C(O)C1OP(=O)(O)O (some centres not stated) = 18.2
Cc1ccc(NCCN(C)C)c2c(=O)c3ccccc3sc12 = 3.08

Now let's try a different one.
Would you kindly share the measured TGI for COc1cccc(C2C3=C(COC3=O)N(CCO)c3cc4c(cc32)OCO4)c1 (configuration not stated) ?
1.07

---

System: K-562 leukemia
Assay: NCI tumour cell line growth inhibition, 48 h
parameter: TGI

Guide cases for TGI, answers given:
CCS(=O)(=O)c1ccc(OC)c(Nc2ncc(-c3ccccc3Cl)o2)c1 = > 25 µM
COC(=O)/C=C(\S/C=C(/c1ccccc1)N1CCn2c(C(=O)c3ccccc3)c(C(=O)OC)c(C(=O)OC)c21)C(=O)OC = > 10 µM
Cc1cc(=O)[nH]c(CNC(=O)c2cccc(C(=O)NCc3cc(=O)[nH]c(C)n3)c2)n1 = > 100 µM
CC[P+]1(c2ccccc2)[C@@H](C)CC[C@@H]1C = > 100 µM
C#COc1cccc(Nc2ncnc3cc(NC(=O)[C@H](C)Cl)ccc23)c1 = > 62.5 µM
C[C@@H]1COCCN1c1cc(C2([S@@](C)(=N)=O)CC2)nc(-c2ccnc3[nH]ccc23)n1 = > 100 µM

Would you kindly share the measured TGI for O=C(Nc1cc(Oc2cc(F)c(NC(=O)C3(C(=O)Nc4ccc(F)cc4)CC3)cc2F)ccn1)C1CC1 ?
> 100 µM

---

System: T-47D breast
Assay: NCI tumour cell line growth inhibition, 48 h
# Lookup of reported TGI keyed by entry

Cc1cccc(NC(=O)/C=C/c2ccc([N+](=O)[O-])cc2)c1 = > 55.9 µM
NC(=O)c1c(NC=O)ncn1C1OCC(O)C(O)C1O (stereo not given) = > 100 µM
CCOC(=O)c1cnn2c3ccccc3n(S(=O)(=O)c3ccc(OC)cc3)c12 = > 100 µM

Would you kindly share the measured TGI for CC(C)/C(=N\[N+](C)(C)C)c1ccccc1 ?
> 100 µM

Would you kindly share the measured TGI for O=C(NNS(=O)(=O)c1ccccc1)c1cccnc1 ?
> 100 µM
